# Tested on: ATP;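 further: ATP exposure 15 min at 22 °C before imaging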
# PROTOCOL: switch fluorescence ratio, 500 uM ATP over buffer (Cy3 cluster intensity, sum of 5 cycles each) (fold (ratio)); higher = stronger signal-on switching upon ATP binding; sequences stand for … in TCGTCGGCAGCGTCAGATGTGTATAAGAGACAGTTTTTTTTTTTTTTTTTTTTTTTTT…TC
# TEST SETTINGS: aptamer strand: ATP DNA aptamer (quencher-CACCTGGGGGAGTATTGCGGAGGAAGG + anchor), 100 nM annealed; ATP concentration: 500 uM
Catalogue of switch fluorescence ratio values
Write no unit; give the number alone.

Example results:
GGCATGCCGG : 1.01
AGCATGGTAG : 1.02
GGATGCAGTT : 0.99
TGAGGGTGGT : 0.981
CCAAGTGCGG : 1.01

Item CGATAGTTAG has what recorded switch fluorescence ratio? 0.986

Dear colleague, I am looking for the recorded switch fluorescence ratio of the following sequence: TTTGTTATGG 1.02

Which switch fluorescence ratio is listed for GTTCAAAATT ? 1.03

Given GGGAATCATG , state its recorded switch fluorescence ratio. 0.971

Reported switch fluorescence ratio, sequence TGAGAGTCAG : ____ 0.986

// data source = the supplement of paper PMC10126150
